Entry source: patent US7375083B2

Experiment: Oral bioavailability of hydrocodone conjugates in rats, LC/MS/MS
Settings: oral, 1 mg/kg dose, relative to hydrocodone bitartrate
Where a SMILES comes first, the peptide text is derived from it. The star is where a group is joined. X1 = COc1ccc2c3c1O[C@H]1C(O*)=CC[C@H]4[C@@H](C2)N(C)CC[C@]314
Known Percent HC (AUC) of a selection of compounds
For clarity, give the value followed by its unit.

Some compounds with known Percent HC (AUC) results, for comparison:
CC[C@H](C)[C@H](NC(=O)[C@H](Cc1ccccc1)NC(=O)[C@H](Cc1ccccc1)NC(=O)[C@H](CCC(=O)O)NC(=O)[C@@H](N)CCC(=O)O)C(=O)OC1=CC[C@H]2[C@H]3Cc4ccc(OC)c5c4[C@@]2(CCN3C)[C@H]1O5 [EEFFI[SEQ ID NO: 5]-HC] (H-EEFFI-X1); 135%
CC[C@H](C)[C@H](NC(=O)[C@H](Cc1ccc(O)cc1)NC(=O)[C@@H](N)Cc1ccc(O)cc1)C(=O)OC1=CC[C@H]2[C@H]3Cc4ccc(OC)c5c4[C@@]2(CCN3C)[C@H]1O5 [YYI-HC, Tyr-Tyr-Ile-Hydrocodone]; 78%
CC[C@H](C)[C@H](NC(=O)[C@H](CC(=O)O)NC(=O)[C@@H](N)CC(=O)O)C(=O)OC1=CC[C@H]2[C@H]3Cc4ccc(OC)c5c4[C@@]2(CCN3C)[C@H]1O5 [DDI-HC, Asp-Asp-Ile-Hydrocodone]; 124%
CC[C@H](C)[C@H](NC(=O)[C@H](Cc1ccccc1)NC(=O)[C@H](Cc1ccccc1)NC(=O)[C@H](Cc1ccc(O)cc1)NC(=O)[C@@H](N)Cc1ccc(O)cc1)C(=O)OC1=CC[C@H]2[C@H]3Cc4ccc(OC)c5c4[C@@]2(CCN3C)[C@H]1O5 [YYFFI[SEQ ID NO: 8]-HC] (H-YYFFI-X1); 110%

Okay, now this compound:
Query block: Could you tell me which Percent HC (AUC) is on file for COc1ccc2c3c1O[C@H]1C(OC(=O)[C@H](Cc4ccccc4)NC(=O)[C@H](Cc4ccccc4)NC(=O)[C@H](Cc4ccccc4)NC(=O)[C@H](CCC(=O)O)NC(=O)[C@@H](N)CCC(=O)O)=CC[C@H]4[C@@H](C2)N(C)CC[C@]314 [EEFFF[SEQ ID NO: 3]-HC] (H-EEFFF-X1) ?
Result block: 108%
